Overview of recorded normalized growth for various compounds
experiment: chemical genetic growth profiling, strain panel (AID 1159580);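 note: tested at 20 µM; growth read once vehicle control cultures reached saturation at 30 °C; 1 = growth at the plate median or of vehicle wells; lower values mean less growth of the strain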; conditions: S. cerevisiae deletion strains, growth OD, locus YOR069W, strain VPS5, active compounds read low
The campaign covered roughly 5,500 compounds. About 2,000 (36%) were called active. Not shown: some 18% with an inconclusive outcome. This is one part of the list.
Please reply with the number alone, leaving off any unit.

CC(=O)[C@@]1(O)CCC2C3C[C@H](C)C4=CC(=O)C=CC4(C)[C@@]3(F)[C@@H](O)C[C@@]21C (some centres not stated) | 1

Please report normalized growth for the following compound: Cc1ccccc1OCC(O)CO (configuration not stated) 1.01

Answer with reported normalized growth of CN1C[C@H](C(=O)N[C@]2(C)O[C@@]3(O)[C@@H]4CCCN4C(=O)[C@H](Cc4ccccc4)N3C2=O)C[C@@H]2c3cccc4[nH]cc(c34)C[C@H]21 0.989

---

experiment: chemical genetic growth profiling, strain panel (AID 1159580); settings: S. cerevisiae deletion strains, growth OD, locus YML124C, strain tub3, active compounds read low
Out of some 5,500 compounds screened, about 2,000 (36%) were called active. About 18% were inconclusive and are not listed. The list shows a part of the results.
measurement_type: normalized growth
# respond with the number and nothing more

COc1cc(OC)c2c(=O)c(OC)c(-c3ccc(OC)c(OC)c3)oc2c1 | 1
CC(=O)Oc1ccc2c(c1C(C)C)CCC1C(C)(C)CCC[C@]21C (some centres undefined) | 1
COc1ccc(-c2oc3c(CC=C(C)C)c(O[C@@H]4O[C@H](CO)[C@@H](O)[C@H](O)[C@H]4O)cc(O)c3c(=O)c2O[C@@H]2O[C@@H](C)[C@H](O)[C@@H](O)[C@H]2O)cc1 | 0.975
C[C@@H]1O[C@@H](OC[C@H]2OC(Oc3c(-c4ccc(OCCO)c(OCCO)c4)oc4cc(OCCO)cc(O)c4c3=O)[C@H](O)[C@@H](O)[C@@H]2O)[C@H](O)[C@H](O)[C@H]1O (some centres undefined) | 1.01
NC(=O)NCC(N)C(=O)O (centres undefined) | 0.981

Give normalized growth for the following compound: CC1(C)C(=O)C=C[C@@]2(C)C1C=C[C@]1(C)C2CC[C@@]2(C)[C@H](c3ccoc3)OC(=O)C3OC321 (some centres undefined) 0.983

Kindly indicate its recorded normalized growth. Item: CCN(Cc1ccncc1)C(=O)C(CO)c1ccccc1 (centres undefined) 0.997

Assign normalized growth to the following record: COc1cc(O)c2c(=O)c(O)c(-c3ccc(O)c(O)c3)oc2c1 1.02

Quote normalized growth reported for Cc1[nH]ccc2c1[nH]c1cc(=O)ccc12 please. 1

# return recorded normalized growth for input Cc1cc(C2CCCCC2)n(O)c(=O)c1 0.0619

Check the records and state normalized growth for O=C(Cc1cccs1)NC1C(=O)N2C(C(=O)[O-])=C(C[n+]3ccccc3)CSC12 (centres undefined) 0.999

Return normalized growth (reported value) for this compound: CC(C)(C)NCC(O)c1cc(Cl)c(N)c(Cl)c1 (centres undefined) 0.999

Answer with the recorded normalized growth for the compound listed here: CC1(C)C2CC(=O)[C@]3(C)C(CC[C@@]4(C)[C@H](c5ccoc5)OC(=O)[C@H]5O[C@]543)[C@@]2(C)C(=O)C[C@H]1O (some centres undefined) 1.01

Retrieve normalized growth measured for CC1(C)C2CC(=O)[C@]3(C)C(CC[C@@]4(C)[C@H](c5ccoc5)OC(=O)C5OC543)[C@@]2(C)[C@@H](O)C[C@H]1O (some centres undefined) and print it. 0.992

---

test: chemical genetic growth profiling, strain panel (AID 1159580); conditions: S. cerevisiae deletion strains, growth OD, locus YOR069W, strain VPS5
In all, about 5,500 compounds went through this assay and about 2,000 (36%) were called active. Another 18% or so got no clear call; they are omitted. Rule as the data show it: active = normalized growth mostly below about 0.91 (no sharp cut-off); inconclusive = no clear call, values can overlap the other calls; inactive = mostly above about 0.92. Some of the results follow.
Pick one and only one: active, inactive

Field: outcome | Entry: CCCCCc1c2c(cc(O)c1C(=O)O)OC(=O)c1c(cc(OC)cc1C(=O)CCCC)O2 inactive

Can you look up the reported call for O=C(O[C@@H]1Cc2c(O)cc(O)cc2O[C@@H]1c1cc(O)c(=O)c2c(O)c(O)cc([C@H]3Oc4cc(O)cc(O)c4C[C@H]3O)c2c1)c1cc(O)c(O)c(O)c1 for me? active

Hi team, can someone confirm the assay call for COc1cc(OC)c2ccc(=O)oc2c1 ? inactive

// outcome(item) with item = COc1ccc2c3c1OC1C(O)CC=C4C(C2)N(C)CCC431 (centres undefined) inactive

Please indicate how the test categorized O=C(OC1Cc2c(O)cc(O)cc2OC1c1cc(=O)c(O)c2c(O)c(O)cc(C3Oc4cc(O)cc(O)c4CC3O)c2c1)c1cc(O)c(O)c(O)c1 (centres undefined) . active

---

assay: chemical genetic growth profiling, strain panel (AID 1159580); conditions: S. cerevisiae deletion strains, growth OD, locus YJL164C, strain tpk1
The campaign covered roughly 5,500 compounds. About 2,000 (36%) were called active. About 18% were inconclusive and are not listed. No stated cut-off is given here; in the data, active means normalized growth mostly below about 0.91 (no sharp cut-off); inconclusive means no clear call, values can overlap the other calls; inactive means mostly above about 0.92. This is one part of the list.
The reply should be one of these categories: 1.0 = active, 0.0 = inactive

CC(C1OC(C)(C)C(O)C1O)[C@@H]1CC[C@]2(C)C3=CCC4C(C)(C)C(=O)CC[C@]4(C)C3CC[C@@]12C (stereo partly drawn) | 0.0
CN(C)c1ccc2nc3ccc(=[N+](C)C)cc-3sc2c1 | 0.0

Which result was noted for this compound in the test: C[C@]12CCC3c4ccc(O)cc4CCC3C1C[C@@H](O)[C@@H]2O (stereo partly drawn) 0.0

Answer briefly: the call reported for COc1cccc2c(C)cc(=O)[nH]c12 in this assay. 0.0

---

assay: chemical genetic growth profiling, strain panel (AID 1159580);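 note: tested at 20 µM; growth read once vehicle control cultures reached saturation at 30 °C; 1 = growth at the plate median or of vehicle wells; lower values mean less growth of the strain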; conditions: S. cerevisiae deletion strains, growth OD, locus YJR075W, strain HOC1, active compounds read low
Among all 5,500 compounds or so, about 2,000 (36%) were called active. Inconclusive results (about 18%) are left out. This is one part of the list.
Some compounds, each annotated with its measured normalized growth.

Below, 5 compounds whose answers are already recorded.
Cc1cc(OC(=O)c2c(C)cc(OC(=O)c3c(C)cc(O)cc3O)cc2O)cc(O)c1C(=O)O | 0.979 (inactive)
COc1ccccc1NC(=O)NCCSCc1ccccc1Cl | 1.01 (inactive)
COC(=O)c1c(C)cc(OC)cc1O | 0.974 (inactive)
CCOC(=O)c1c(C)cc(OC)cc1O | 0.936 (inactive)
CCC(=O)c1c(O)cc(O)cc1O | 1.01 (inactive)

For the compound Cc1cc(OC(=O)c2c(C)cc(O)cc2O)cc(O)c1C(=O)O , report normalized growth. 1.01 (inactive)

---

test: chemical genetic growth profiling, strain panel (AID 1159580);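 note: tested at 20 µM; growth read once vehicle control cultures reached saturation at 30 °C; 1 = growth at the plate median or of vehicle wells; lower values mean less growth of the strain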; conditions: S. cerevisiae deletion strains, growth OD, locus YMR277W, strain FCP1, active compounds read low
Among all 5,500 compounds or so, about 2,000 (36%) were called active. About 18% were inconclusive and are not listed. The list shows a part of the results.
measurement_type: normalized growth
Lab note: jot down the number only; don't add units.

For the compound O=C1C(Cl)=C(Oc2cc(Cl)c(Cl)cc2Cl)C(=O)c2ccccc21 , give its measured normalized growth value. 0.117

Identify the reported normalized growth for the following entry. O=C(Nc1ccccc1)Nc1ccc(Cl)cc1[N+](=O)[O-] 0.974

For the compound c1ccc(-c2nnc(-c3ccccn3)nc2-c2ccccc2)cc1 , give its measured normalized growth value. 0.871

Look up and report measured normalized growth for this entry: FC(F)(F)c1cccc(NC(=S)NN=C2CCCCCC2)c1 0.988

Look up and report measured normalized growth for this entry: CN(C)C=Nc1nnc(Sc2nc3c(Cl)cc(Cl)cc3s2)s1 0.962

Give the reported value of normalized growth for this record: Cc1cc(Cl)ccc1NNC(=O)c1sccc1Cl 0.905

Supply reported normalized growth belonging to this compound: CC(C)(C)NC(=S)N/N=C\c1ccccc1O 0.93

Please report the measured normalized growth for CC(NC(=S)N/N=C\c1ccccc1O)c1ccccc1 (stereo not drawn) 0.971

Consider the compound O=[N+]([O-])c1cc(Cl)cc([N+](=O)[O-])c1Nc1ccccc1 and give its recorded normalized growth. 0.936

Supply normalized growth value. Item: CCOC(=O)N/N=C\c1cc(Cl)cc(Cl)c1O 0.936

For the compound Cc1cc(Cl)ccc1NNC(=O)c1sccc1Br , give its measured normalized growth value. 0.921

Return normalized growth (reported value) for this compound: Cc1ccc(NNC(=O)c2cccs2)cc1Cl 0.974

Look up and report measured normalized growth for this entry: O=S(=O)(CS(=O)(=O)Oc1ccc(Cl)c(Cl)c1)Oc1ccc(Cl)c(Cl)c1 0.949

---

assay: chemical genetic growth profiling, strain panel (AID 1159580);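 note: tested at 20 µM; growth read once vehicle control cultures reached saturation at 30 °C; 1 = growth at the plate median or of vehicle wells; lower values mean less growth of the strain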; details: S. cerevisiae deletion strains, growth OD, locus YDL035C, strain GPR1, active compounds read low
Screen size: about 5,500 compounds; about 2,000 (36%) were called active. Roughly 18% stayed inconclusive and do not appear here. This is one part of the list.
Measured normalized growth by item
Returns: the value as a bare number; no unit string appended.

C=C(C)[C@H]1COc2cc3oc(=O)ccc3cc2O1 | 0.491
CCCCCCCCCCCCCCCCCC(=O)OC(CC(=O)O)C[N+](C)(C)C (centres undefined) | 0.283
CC(C)(O)[C@@H]1Cc2cc3ccc(=O)oc3cc2O1 | 1.02
CC1(C)C(=O)C=C[C@@]2(C)C1C=C[C@]1(C)C2CC[C@@]2(C)[C@H](c3ccoc3)OC(=O)C3OC321 (some centres undefined) | 0.979

Specify normalized growth for CCc1cccc(CC)c1N(COC)C(=O)CCl and stop. 1.02

Tell me its normalized growth given CNC(C)C(O)c1ccccc1 (centres undefined) as the entry. 1.01

Using the record for CCc1cc(C(N)=S)ccn1 , state its measured normalized growth. 1.01

Provide measured normalized growth value, entry: CN1C[C@H](C(=O)N[C@]2(C)O[C@@]3(O)[C@@H]4CCCN4C(=O)[C@H](Cc4ccccc4)N3C2=O)C[C@@H]2c3cccc4[nH]cc(c34)C[C@H]21 1.01

Give normalized growth for the following molecule: CC1(C)O[C@H]2CC(=O)OC[C@]23[C@H]2CC[C@@]4(C)[C@H](c5ccoc5)OC(=O)[C@H]5O[C@]54[C@]2(C)C(=O)C[C@@H]13 1.02

Given C[N+](C)(C)CC(O)CC(=O)O (centres undefined) , respond with its normalized growth. 1.02

# return recorded normalized growth for input CC/C(=C(/CC)c1ccc(O)cc1)c1ccc(O)cc1 0.867
